System: Pseudomonas aeruginosa (PAO1)
Experimental Details: MIC/MBC antibiotic sensitivity (CLSI)
Type: cell-based
Study Conditions: Pseudomonas aeruginosa; P. aeruginosa (PAO1); read-out: MIC
Observed Property: MIC (µg/mL)

P. O=C(NC(=Nc1c(Br)cc(F)cc1Br)Nc1c(F)cc(F)cc1Br)C12CC3CC(CC(C3)C1)C2
Q. O=C(NC(=Nc1c(F)cc(F)cc1Br)Nc1c(F)cc(F)cc1Br)C12CC3CC(CC(C3)C1)C2
R. NC[C@H]1O[C@H](O[C@H]2[C@H](O)[C@@H](O[C@H]3O[C@H](CO)[C@@H](O)[C@H](N)[C@H]3O)[C@H](N)C[C@@H]2N)[C@H](N)C[C@@H]1O
Query string: # ascending order, key=MIC Labels, ranked as asked.
Result string: Q, R, P

###

System: Bacillus cereus (ATCC10876)
Experimental Details: MIC/MBC antibiotic sensitivity (CLSI)
Format: cell-based
Study Conditions: read-out: MIC
Observed Property: MIC (µg/mL)

1. O=C(NC(=Nc1c(F)cc(F)cc1Br)Nc1c(F)cc(F)cc1Br)C12CC3CC(CC(C3)C1)C2
2. NC[C@H]1O[C@H](O[C@H]2[C@H](O)[C@@H](O[C@H]3O[C@H](CO)[C@@H](O)[C@H](N)[C@H]3O)[C@H](N)C[C@@H]2N)[C@H](N)C[C@@H]1O
3. O=C(NC(=Nc1c(Br)cc(F)cc1Br)Nc1c(F)cc(F)cc1Br)C12CC3CC(CC(C3)C1)C2
Query string: I'd appreciate it if you sorted the entries above by their MIC, lowest to highest. Reply: labels, ordered per the request.
Result string: 1, 2, 3

###

Test system: Bordetella bronchiseptica (9.73H+)
Experimental Details: MIC/MBC antibiotic sensitivity (CLSI)
Assay type: cell-based
Study Conditions: B. bronchiseptica (9.73H+); read-out: MIC
Text: The new compounds of the invention were synthesized following the general method of preparation (Tetrahedron, 2001, 57, 1671-1675), from the reaction between an intermediary compound of the acyl thiourea and HgCl2 in presence of trimethylamine. […] The later were selected because they presented resistance to a high number of antimicrobial compounds, among a panel of 125 clinical isolates previously analyzed for its resistance against 17 antimicrobial compounds (1,2). […]
Observed Property: MIC (µg/mL)

1. NC[C@H]1O[C@H](O[C@H]2[C@H](O)[C@@H](O[C@H]3O[C@H](CO)[C@@H](O)[C@H](N)[C@H]3O)[C@H](N)C[C@@H]2N)[C@H](N)C[C@@H]1O [Tobramucin, tobramycin]
2. O=C(NC(=Nc1c(Br)cc(F)cc1Br)Nc1c(F)cc(F)cc1Br)C12CC3CC(CC(C3)C1)C2 [H-DBF]
3. O=C(NC(=Nc1c(F)cc(F)cc1Br)Nc1c(F)cc(F)cc1Br)C12CC3CC(CC(C3)C1)C2 [H-BDF]
Query string: Given 3 compounds, produce a descending ranking by MIC. Ranked list of labels, please, in the requested order.
Result string: 1, 2, 3

###

System: Pseudomonas aeruginosa (PAO1)
Experimental Details: MIC/MBC antibiotic sensitivity (CLSI)
Assay type: cell-based
Study Conditions: Pseudomonas aeruginosa; P. aeruginosa (PAO1); read-out: MBC
In this section, each of the molecules is paired with its reported MBC.
Only the number, expressed in µg/mL, is required.

Molecule | MBC / µg/mL
NC[C@H]1O[C@H](O[C@H]2[C@H](O)[C@@H](O[C@H]3O[C@H](CO)[C@@H](O)[C@H](N)[C@H]3O)[C@H](N)C[C@@H]2N)[C@H](N)C[C@@H]1O [Tobramucin, tobramycin] | 1.95

Query string: # MBC lookup, item O=C(NC(=Nc1c(F)cc(F)cc1Br)Nc1c(F)cc(F)cc1Br)C12CC3CC(CC(C3)C1)C2 [H-BDF]
Result string: 3.9
